So I've got a bunch of binders here, and I need their IC50 (neutralization in TZM.bl cells) values.
- STUDY SYSTEM: HIV-1 pseudovirus SC05.8C11.2344 (HIV-1)
- METHOD DESCRIPTION: cell-based or functional assay
Give the figure together with its unit, number first.

MS-78 (antibody, V domains shown) VH: QVQLVQSGPEVRKPGTSVKVSCKAPGNTLKTYDLHWVRSVPGQGLEWMGWISHEGDKKVIVERFKAKVTIDWDRSTNTAYLQLSGLTSGDTAVYYCAKGSKHRLRDYALYDDDGALNWAVDVDYLSNLEFWGQGTAVTVSS VL: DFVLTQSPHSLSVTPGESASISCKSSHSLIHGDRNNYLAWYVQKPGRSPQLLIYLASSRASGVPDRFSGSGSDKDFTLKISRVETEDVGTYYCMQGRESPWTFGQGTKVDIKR :: 0.658 µg/mL
MS-87 (antibody, V domains shown) VH: QVQLVQSGPEVRKPGTSVKVSCKAPGNTLKTYDLHWVRSVPGQGLQWMGWISHEGDKKVIVERFKAKVTITRDRSTNTAYLQLSGLTSGDTAVYYCAKGSKHRLRDYALYDDDGALNWAVDVDYLSNLEFWGQGTAVTVSS VL: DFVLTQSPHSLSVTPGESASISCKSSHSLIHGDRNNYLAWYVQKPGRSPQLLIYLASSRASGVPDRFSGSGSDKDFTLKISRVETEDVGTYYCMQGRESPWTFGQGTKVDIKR :: 1.23 µg/mL

Now look at this entry.
Exercise: Could you share which IC50 (neutralization in TZM.bl cells) value was measured for MS-79 (antibody, V domains shown) VH: QVQLVQSGPEVRKPGTSVKVSCKAPGNTLKTYDLHWVRSVPGQGLQWMGWISHEGDKKVIVERFKAKVTITWDRSTNTAYLQLSGLTSGDTAVYYCAKGSKHRLRDYALYDDDGALNWAVDVDYLSNLEFWGQGTAVTVSS VL: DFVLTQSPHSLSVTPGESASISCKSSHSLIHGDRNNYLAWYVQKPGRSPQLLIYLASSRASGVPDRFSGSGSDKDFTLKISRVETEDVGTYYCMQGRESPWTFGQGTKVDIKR ?
Key: 0.593 µg/mL
